Recorded Emax for the following molecules
# MEASUREMENT_TARGET: NMDA receptor histamine site (NMDA(HA)R), native NMDAR of rat hippocampal synaptosomes (Rattus norvegicus, UniProt P35439+Q00960)
# Sequence (Q00960 27-1482, other chains not shown): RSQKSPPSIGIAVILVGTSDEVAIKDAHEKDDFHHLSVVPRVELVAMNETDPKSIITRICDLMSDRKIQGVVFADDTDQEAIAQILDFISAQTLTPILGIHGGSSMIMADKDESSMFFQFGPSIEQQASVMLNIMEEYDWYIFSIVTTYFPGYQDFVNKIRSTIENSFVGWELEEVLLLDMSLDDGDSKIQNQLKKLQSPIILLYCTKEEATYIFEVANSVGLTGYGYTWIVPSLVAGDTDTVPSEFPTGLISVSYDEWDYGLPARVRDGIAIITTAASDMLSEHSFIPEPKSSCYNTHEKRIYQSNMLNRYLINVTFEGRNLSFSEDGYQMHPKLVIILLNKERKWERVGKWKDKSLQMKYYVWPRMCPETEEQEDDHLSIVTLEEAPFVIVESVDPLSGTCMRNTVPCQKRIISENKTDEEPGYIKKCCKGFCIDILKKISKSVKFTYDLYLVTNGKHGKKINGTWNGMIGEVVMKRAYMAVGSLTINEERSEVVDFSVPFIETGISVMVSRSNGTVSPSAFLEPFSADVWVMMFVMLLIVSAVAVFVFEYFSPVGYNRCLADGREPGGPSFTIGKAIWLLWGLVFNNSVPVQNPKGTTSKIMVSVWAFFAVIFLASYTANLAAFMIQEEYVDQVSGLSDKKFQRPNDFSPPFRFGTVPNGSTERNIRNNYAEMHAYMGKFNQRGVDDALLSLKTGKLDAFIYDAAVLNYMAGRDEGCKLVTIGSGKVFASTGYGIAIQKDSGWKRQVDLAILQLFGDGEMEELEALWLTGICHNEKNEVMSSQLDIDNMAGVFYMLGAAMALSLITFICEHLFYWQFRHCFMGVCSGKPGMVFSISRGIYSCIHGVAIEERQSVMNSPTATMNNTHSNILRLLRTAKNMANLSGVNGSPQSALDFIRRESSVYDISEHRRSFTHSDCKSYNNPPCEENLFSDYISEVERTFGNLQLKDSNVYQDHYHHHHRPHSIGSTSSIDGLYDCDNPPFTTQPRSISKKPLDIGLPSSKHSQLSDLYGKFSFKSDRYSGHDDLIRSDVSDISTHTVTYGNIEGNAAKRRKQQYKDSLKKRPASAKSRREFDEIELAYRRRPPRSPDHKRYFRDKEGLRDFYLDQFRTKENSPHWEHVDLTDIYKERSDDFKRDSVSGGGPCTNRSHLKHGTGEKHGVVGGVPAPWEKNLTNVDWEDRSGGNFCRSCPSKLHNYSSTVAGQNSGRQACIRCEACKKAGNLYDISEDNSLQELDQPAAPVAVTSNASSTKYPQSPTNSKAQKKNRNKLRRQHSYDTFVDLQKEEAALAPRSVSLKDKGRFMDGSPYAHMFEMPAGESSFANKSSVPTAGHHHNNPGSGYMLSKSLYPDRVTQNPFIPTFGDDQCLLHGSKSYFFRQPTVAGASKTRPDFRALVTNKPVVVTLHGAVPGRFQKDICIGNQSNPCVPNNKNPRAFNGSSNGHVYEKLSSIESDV
# ASSAY_NOTES: tissue or organelle
# CONDITION_PARAMETERS: read-out: Intrinsec activity %
ASSAY_ENDPOINT: Emax (%)

INSERT INTO assay_data (structure_notation, observed) VALUES
  ('Nc1nc2ccc(CCNCC3CCCCC3)cc2s1', 48),
  ('Nc1nc2ccc(CCNCc3ccccc3)cc2s1', 36),
  ('Cc1ccc(CCNCCc2ccc3nc(N)sc3c2)cc1', 32),
  ('COc1ccc(CCNCCc2ccc3nc(N)sc3c2)cc1', 19),
  ('Nc1nc2ccc(CCNCCCCCCc3ccccc3)cc2s1', 33),
  ('Nc1nc2ccc(CCNCCc3ccccc3)cc2s1', 30),
  ('Nc1nc2ccc(CCNCCCCCc3ccccc3)cc2s1', 33),
  ('Nc1nc2ccc(CCNCCCc3ccccc3)cc2s1', 32);

---

# MEASUREMENT_TARGET: NMDA receptor histamine site (NMDA(HA)R), native NMDAR of rat hippocampal synaptosomes (Rattus norvegicus, UniProt P35439+Q00960)
# ASSAY_NOTES: tissue or organelle
# CONDITION_PARAMETERS: read-out: Intrinsec activity %
Emax vs 50%: less than gives Fulfilled; not less than gives Not fulfilled.

INSERT INTO assay_data (structure_notation, assigned_label) VALUES
  ('CCc1nc(N)sc1CCCN', 'Not fulfilled'),
  ('CCc1nc(N)sc1CCN', 'Not fulfilled'),
  ('Cc1nc(N)sc1CCCCN', 'Not fulfilled'),
  ('CCc1nc(N)sc1CCCCN', 'Fulfilled');

---

# MEASUREMENT_TARGET: NMDA receptor histamine site (NMDA(HA)R), native NMDAR of rat hippocampal synaptosomes (Rattus norvegicus, UniProt P35439+Q00960)
# ASSAY_NOTES: tissue or organelle
# CONDITION_PARAMETERS: read-out: Intrinsec activity %
ASSAY_ENDPOINT: Emax (%)

INSERT INTO results (compound, observed) VALUES
  ('Sc1nc2ccc(SCCNCCCCc3ccccc3)cc2s1', 38),
  ('COc1cc2c(cc1OC)CC(NCC(O)c1ccc(C)cc1)CC2 (stereo not shown)', 50),
  ('CCCCCCNCCc1ccc2nc(N)sc2c1', 35),
  ('CCCCCCCNCCc1ccc2nc(N)sc2c1', 33),
  ('CCCCNCCc1ccc2nc(N)sc2c1', 31),
  ('CCCCCCCCNCCc1ccc2nc(N)sc2c1', 33),
  ('CC(C)(C)NCCc1ccc2nc(N)sc2c1', 23),
  ('CCC(C)(C)NCCc1ccc2nc(N)sc2c1', 27),
  ('Clc1nc2ccc(CCNCCCCc3ccccc3)cc2s1', 40),
  ('CCNCCc1ccc2nc(N)sc2c1', 15),
  ('CCCNCCc1ccc2nc(N)sc2c1', 15),
  ('CCN(CCc1ccccc1)C1CCc2cc(OC)c(OC)cc2C1 (stereo not shown)', 25),
  ('CCCCCNCCc1ccc2nc(N)sc2c1', 30),
  ('COc1ccc(C(O)CNC2CCc3cc(OC)c(OC)cc3C2)cc1 (stereo not shown)', 30),
  ('CCCCCCCCCNCCc1ccc2nc(N)sc2c1', 30),
  ('CCCC(C)(C)NCCc1ccc2nc(N)sc2c1', 32);
